# Test system: HepG2
# protocolDescription: cytotoxicity call (relative viability < 0.9)
# experimentalContext: 10 µM
In all, about 39,000 compounds went through this assay and about 3,300 (8.5%) were called active. Shown is part of a subset that was picked to be rich in actives.
Outcomes: yes (1) = active, no (0) = inactive

| inputSmiles | measuredTarget | classLabel |
| --- | --- | --- |
| C[C@H](CO)N1C[C@H](C)[C@H](CN(C)C(=O)C2CCCCC2)OCCCC[C@H](C)Oc2ccc(NS(=O)(=O)c3cccs3)cc2C1=O | HepG2 | no (0) |
| C[C@H](CO)N1C[C@H](C)[C@@H](CN(C)S(=O)(=O)c2ccc(Cl)cc2)Oc2ccc(NC(=O)C3CC3)cc2CC1=O | HepG2 | no (0) |
| Cc1ccc(S(=O)(=O)Nc2ccc3c(c2)C(=O)N([C@@H](C)CO)C[C@H](C)[C@@H](CN(C)C(=O)C2CCCCC2)OCCCC[C@H](C)O3)cc1 | HepG2 | no (0) |
| C[C@H]1CN([C@@H](C)CO)C(=O)c2cc(NS(=O)(=O)c3cccs3)ccc2O[C@H]1CN(C)S(=O)(=O)c1ccccc1 | HepG2 | no (0) |
| Cc1cccc(NC(=O)Nc2ccc3c(c2)C(=O)N(C)[C@@H]2CC[C@H](CC(=O)NCc4ccccc4Cl)O[C@H]2CO3)c1 | HepG2 | no (0) |
| C[C@@H]1CN([C@@H](C)CO)C(=O)c2cc(NS(=O)(=O)c3ccc(F)cc3)ccc2O[C@@H](C)CCCCO[C@@H]1CN(C)C(=O)Nc1cccc2ccccc12 | HepG2 | no (0) |
| C[C@H](CO)N1C[C@H](C)[C@H](CN(C)Cc2ccc(Oc3ccccc3)cc2)Oc2c(NS(=O)(=O)c3ccc(F)cc3)cccc2C1=O | HepG2 | no (0) |
| COc1ccc(S(=O)(=O)Nc2ccc3c(c2)C(=O)N([C@@H](C)CO)C[C@H](C)[C@@H](CN(C)C(=O)Nc2ccc(F)cc2)OCCCC[C@H](C)O3)cc1 | HepG2 | yes (1) |
| C[C@@H]1CCCCO[C@@H](CN(C)C(=O)Nc2ccc(F)cc2)[C@@H](C)CN([C@H](C)CO)C(=O)c2cc(NC(=O)c3ccncc3)ccc2O1 | HepG2 | no (0) |
| COc1ccc(NC(=O)N(C)C[C@H]2OCCCC[C@@H](C)Oc3ccc(NS(=O)(=O)c4ccc(F)cc4)cc3C(=O)N([C@@H](C)CO)C[C@@H]2C)cc1 | HepG2 | no (0) |
| COc1ccc(NC(=O)Nc2ccc3c(c2)C(=O)N([C@@H](C)CO)C[C@@H](C)[C@H](CN(C)Cc2ccc(-c4ccccc4)cc2)O3)cc1 | HepG2 | yes (1) |
| C[C@H]1CCCCO[C@@H](CN(C)C(=O)Nc2cccc3ccccc23)[C@@H](C)CN([C@@H](C)CO)C(=O)c2cc(NS(=O)(=O)c3ccc(F)cc3)ccc2O1 | HepG2 | no (0) |
| COC(=O)[C@@H](N)c1cccc(Cl)c1 | HepG2 | no (0) |
| NCc1cc2ccc(F)cc2[nH]c1=O | HepG2 | no (0) |
| COc1ccc(S(=O)(=O)Nc2ccc3c(c2)C(=O)N([C@@H](C)CO)C[C@H](C)[C@@H](CN(C)C(=O)Nc2ccc(F)cc2)OCCCC[C@@H](C)O3)cc1 | HepG2 | yes (1) |

---

# Tested on: HepG2
# protocolDescription: cytotoxicity call (relative viability < 0.9)
# experimentalContext: 10 µM
Among all 39,000 compounds or so, about 3,300 (8.5%) were called active. The entries come from a sample that favours actives as a whole.
Outcome codes: active, inactive

| inputSmiles | classLabel |
| --- | --- |
| O=C(Cc1ccncc1)NCC[C@@H]1CC[C@@H](NC(=O)C2CCOCC2)[C@H](CO)O1 | inactive |
| C[C@@H]1CCCCO[C@@H](CN(C)Cc2ccc(C(F)(F)F)cc2)[C@H](C)CN([C@H](C)CO)C(=O)c2cc(NS(=O)(=O)c3ccc(F)cc3)ccc2O1 | inactive |
| C[C@@H]1CN([C@@H](C)CO)C(=O)Cc2cc(NC(=O)Cn3cnnn3)ccc2O[C@H]1CN(C)S(=O)(=O)c1ccccc1 | inactive |
| O=C(C[C@H]1C[C@H]2c3cc(NC(=O)Cc4ccncc4)ccc3O[C@H]2[C@@H](CO)O1)NCc1cc(F)ccc1F | inactive |
| C[C@H]1CCCCO[C@@H](CN(C)S(=O)(=O)c2ccccc2)[C@@H](C)CN([C@@H](C)CO)C(=O)c2cc(NC(=O)Nc3ccccc3)ccc2O1 | inactive |
| S=C1NCNCN1 | inactive |
| Cc1ccc(S(=O)(=O)Nc2ccc3c(c2)C(=O)N([C@@H](C)CO)C[C@@H](C)[C@@H](CN(C)Cc2ccc(C(F)(F)F)cc2)OCCCC[C@@H](C)O3)cc1 | active |
| CC[C@@]1(C)N[C@H](C(=O)O)CS1 | inactive |
| C[C@H]1CN([C@@H](C)CO)C(=O)c2cccc(NC(=O)C3CCOCC3)c2O[C@H]1CN(C)Cc1ccc(-c2ccccc2)cc1 | inactive |
| Cc1ccc(S(=O)(=O)Nc2ccc3c(c2)C(=O)N([C@H](C)CO)C[C@H](C)[C@H](CN(C)Cc2ccc(C(F)(F)F)cc2)OCCCC[C@H](C)O3)cc1 | inactive |
| Cc1ccc(S(=O)(=O)Nc2ccc3c(c2)C(=O)N([C@H](C)CO)C[C@@H](C)[C@H](CN(C)Cc2ccc(C(F)(F)F)cc2)OCCCC[C@H](C)O3)cc1 | active |

---

# Test system: HepG2
# protocolDescription: cytotoxicity call (relative viability < 0.9)
# experimentalContext: 10 µM
Among all 39,000 compounds or so, about 3,300 (8.5%) were called active. The sample holds actives, similar compounds and a random draw of the others, so the mix is not that of the screen.

| compound | cytotoxicity call |
| --- | --- |
| COC(=O)C[C@H]1CC[C@@H]2[C@H](COC[C@@H](O)CN2S(=O)(=O)c2ccccc2C)O1 | inactive |
| C[C@@H]1O[C@@H](O[C@H]2[C@H](O[C@H]3[C@H](O)[C@@H](C(=O)O)O[C@@H](O[C@H]4CC[C@]5(C)[C@H]6CC[C@]78OC[C@@]9(CCC(C)(C)C[C@@H]97)[C@H](O)C[C@@]8(C)[C@]6(C)CC[C@H]5C4(C)C)[C@@H]3OC3O[C@H](CO)[C@@H](O)[C@H](O)[C@H]3O)O[C@H](CO)[C@H](O)[C@@H]2O)[C@H](O)[C@H](O)[C@H]1O (stereo not given in full) | active |
| CC(=O)O[C@@H]1[C@@H]2C[C@@H]([C@H]1OC(C)=O)[C@@H]1C(=O)N(C)C(=O)[C@@H]21 | active |
| C[C@@H]1CN([C@@H](C)CO)C(=O)Cc2cc(NC(=O)Nc3ccc(C(F)(F)F)cc3)ccc2O[C@H]1CN(C)C(=O)Nc1ccc(C(F)(F)F)cc1 | active |
| C[C@H]1O[C@@H](OC[C@H]2O[C@@H](O[C@H]3CC[C@]4(C)[C@H]5CCC6=C(CC[C@@]7(C(=O)O[C@@H]8O[C@H](CO)[C@@H](O)[C@H](O)[C@H]8O[C@@H]8O[C@H](CO)[C@@H](O)[C@H](O)[C@H]8O)CCC(C)(C)C[C@@H]67)[C@]5(C)CC[C@H]4C3(C)C)[C@H](O)[C@@H](O)[C@@H]2O)[C@H](O)[C@@H](O)[C@@H]1O | inactive |
| CC(=O)O[C@H]1CC(C)(C)C[C@H]2[C@]13CO[C@@]21CC[C@@H]2[C@@]4(C)CC[C@H](O[C@@H]5O[C@H](C(=O)O)[C@@H](O)[C@H](O[C@@H]6O[C@H](CO)[C@H](O)[C@H](O)[C@H]6O[C@@H]6O[C@@H](C)[C@H](O)[C@@H](O)[C@H]6O)[C@H]5O[C@@H]5O[C@H](CO)[C@@H](O)[C@H](O)[C@H]5O)C(C)(C)[C@@H]4CC[C@@]2(C)[C@]1(C)C[C@H]3O | active |
| C[C@H]1CN([C@@H](C)CO)C(=O)Cc2cc(NC(=O)Nc3ccc(C(F)(F)F)cc3)ccc2O[C@H]1CN(C)C(=O)Nc1ccc(C(F)(F)F)cc1 | active |
| C[C@@H]1CN([C@@H](C)CO)C(=O)c2cc(NS(=O)(=O)c3cn(C)cn3)ccc2O[C@@H]1CN(C)C(=O)NC1CCCCC1 | inactive |
| C[C@H]1CN([C@@H](C)CO)C(=O)c2cc(NC(=O)c3ccncc3)ccc2O[C@@H]1CN(C)S(=O)(=O)c1cccs1 | inactive |
| CC(=O)O[C@@H]1[C@H](OC(C)=O)N(C)C(=O)N1C | inactive |

All figures here come from the antibiotic and cytotoxicity screens of Wong et al. (2023).
